experimental-system: T1, NPY2 receptor (human (printed as hNPY2R), UniProt P49146 1-381)
T1 sequence (looked up): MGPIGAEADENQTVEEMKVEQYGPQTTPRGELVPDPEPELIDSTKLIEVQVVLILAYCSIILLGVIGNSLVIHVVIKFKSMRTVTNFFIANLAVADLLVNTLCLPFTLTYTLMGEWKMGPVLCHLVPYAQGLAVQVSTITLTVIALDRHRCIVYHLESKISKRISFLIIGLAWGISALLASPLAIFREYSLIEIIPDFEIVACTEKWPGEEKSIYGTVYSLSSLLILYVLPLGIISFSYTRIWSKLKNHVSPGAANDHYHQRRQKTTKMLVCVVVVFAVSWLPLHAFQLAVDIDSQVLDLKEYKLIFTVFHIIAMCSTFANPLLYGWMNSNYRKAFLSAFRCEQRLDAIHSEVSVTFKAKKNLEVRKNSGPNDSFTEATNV
assay-info: cell-based or functional assay
Starred links: 1 amine or outer side, 2 acyl side, 3 side chain; linkers in the order of their positions; H or OH if unused. Non-standard residues stand in square brackets, D forms with d. Groups on a side chain read outwards from the residue. No end group written: not given here. *: point of attachment. C20 diacid = O=C(O)CCCCCCCCCCCCCCCCCCC(=O)*; C18 diacid = O=C(O)CCCCCCCCCCCCCCCCC(=O)*; γGlu = O=C(O)[C@H](CCC(=O)[*:2])N[*:1]; εLys = N[C@@H](CCCCN[*:1])C(=O)[*:2]; AEEA = NCCOCCOCC(=O)O; Aib = CC(C)(N)C(=O)O
Define the label as Satisfied when EC50 hNPY2R 0.5% hP (CreLuc) is strictly less than 10 nM and as Not satisfied in all remaining cases.

binder	label
YXEGTFTSDLSIXLEKQAQXAFVEWLIKGGPSEGASLRHYYNWLTRQRY (Aib at 2, 13, 20; K28 side chain carries C20DA-gGlu-gGlu-gGlu-gGlu-Glu-gGlu-eLys (so in the source); C-terminal amide) [Compound 234]	Not satisfied
Y[Aib]EGTFTSDYSI[Aib]LEKQAQ[Aib]AFVEWLIK([AEEA-AEEA-γGlu-γGlu-γGlu-γGlu-C18 diacid])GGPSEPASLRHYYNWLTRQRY-NH2 (also: TFA salt) [Compound 256]	Not satisfied
Y[Aib]EGTFTSDYSI[Aib]LEKQAQ[Aib]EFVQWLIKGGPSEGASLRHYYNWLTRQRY-NH2 (not fully specified (residue 28); also: TFA salt) [Compound 207]	Not satisfied
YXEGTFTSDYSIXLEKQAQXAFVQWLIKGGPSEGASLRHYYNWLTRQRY (Aib at 2, 13, 20; K28 side chain carries C20DA-gGlu-gGlu-gGlu-gGlu-gGlu-OEG-OEG; C-terminal amide) [Compound 228]	Satisfied
Y[Aib]EGTFTSDYSI[Aib]LEEQAQ[Aib]AFVEWLIK([εLys-γGlu-γGlu-γGlu-γGlu-γGlu-C20 diacid])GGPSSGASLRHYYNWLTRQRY-NH2 (also: TFA salt) [Compound 181]	Not satisfied
